test-summary: Inhibition of calpain I in C2C12 myoblasts loaded with Suc-Leu-Tyr-AMC
Assay type: functional, Mus musculus
readout-label: IC50 (µM)

CCNC(=O)C(=O)[C@H](Cc1ccc(Cl)cc1Cl)NC(=O)[C@@H](NC(=O)CCCCC1CCSS1)C(C)C (stereo partly drawn): 40
CCNC(=O)C(=O)[C@@H](Cc1ccc(Br)cc1)NC(=O)[C@H](CC(C)C)NC(=O)CCCCC1CCSS1 (stereo partly drawn): 0.4
CCNC(=O)C(=O)[C@H](Cc1ccc(Cl)cc1)NC(=O)[C@@H](NC(=O)CCCC[C@@H]1SC[C@@H]2NC(=O)N[C@@H]21)C(C)C: 5

[1] CCNC(=O)C(=O)[C@H](Cc1ccc(Cl)cc1)NC(=O)[C@@H](NC(=O)CCCCC1CCSS1)C(C)C (stereo partly drawn)
[2] CCNC(=O)C(=O)[C@H](Cc1cccs1)NC(=O)[C@@H](NC(=O)CCCCC1CCSS1)C(C)C (stereo partly drawn)
Query :: Could you tell me which of 1 and 2 has the lower IC50 reading? Give the label under which the chosen entry appears.
Result :: 1

[P] CCNC(=O)C(=O)[C@H](Cc1ccc(Cl)c(Cl)c1)NC(=O)[C@@H](NC(=O)CCCCC1CCSS1)C(C)C (stereo partly drawn)
[Q] CCNC(=O)C(=O)[C@H](Cc1ccc(Cl)cc1)NC(=O)[C@@H](NC(=O)CCCCc1ccccc1)C(C)C
Query :: Could you tell me which of P and Q has the lower IC50 reading? Give the label under which the chosen entry appears.
Result :: Q
(Q: 1.5 µM, P: 10 µM)
